What Heart rate was measured for each of the following?
# System: Rattus norvegicus
# Assay Summary: Change in Heart rate(beats/min) was determined after 4 hr of (10 mg/kg p.o.) administration in conscious, spontaneously hypertensive rats
# Type: functional
Give bare numbers, in beats min-1.

Study these solved cases before continuing.
Compound	Measurement Unit	Heart rate
C[C@H](CCc1ccccc1)NC[C@@H](O)c1ccc(O)c(C(N)=O)c1.Cl	beats min-1	-39
CC(CCc1ccccc1)NCC(O)c1ccc(O)c(C(N)=O)c1 (stereo not given)	beats min-1	-23
C[C@H](CCc1ccccc1)NC[C@H](O)c1ccc(O)c(C(N)=O)c1.Cl [DILEVALOL HYDROCHLORIDE]	beats min-1	-45
C[C@@H](CCc1ccccc1)NC[C@H](O)c1ccc(O)c(C(N)=O)c1.Cl	beats min-1	6

Provide Heart rate value for the following compound: "C[C@@H](CCc1ccccc1)NC[C@@H](O)c1ccc(O)c(C(N)=O)c1.Cl"
-7
